Provide the reported T/C of each item.
System: L1210 leukemia ip in BDF1 mice, survival T/C
method summary: NCI In Vivo Anticancer Drug Screen. Data for tumor model L1210 Leukemia (intraperitoneal) in B6D2F1 (BDF1) mice
settings: endpoint: mean survival time; dose: 200.0 mg/kg/injection; schedule: Q04DX003 (ip); vehicle: saline with Tween-80; higher = longer survival
Toxic doses and inconclusive results are not listed. Square brackets hold non-standard residues; d marks the D form. Peptide text beside a SMILES is read from it. * marks the point of attachment. ξ: configuration not given here. ξL = CC(C)CC(N)C(=O)O; ClAc = O=C(CCl)*

Report T/C for "CN(C(=O)/C=C/C(=O)O)c1ccccc1" please. 95 % of control

May I ask what T/C has been recorded for "O=C(O)CSCCCc1ccccc1" ? 102 % of control

Consider the molecule shown here: CC(C)CC(NC(=O)CCl)C(=O)NCC(=O)O (centres undefined) (ClAc-[ξL]-Gly-OH) What is its recorded T/C? 95 % of control

Report T/C for "NC(N)=NNC(=O)C(=O)O" please. 91 % of control

The values you see were collected from PubChem BioAssay AID248.
